Examples of compounds with documented GI50 follow.
# System: SK-OV-3 ovarian
# EXPERIMENTAL_PROTOCOL: NCI tumour cell line growth inhibition, 48 h

COMPOUND: c1ccc(-c2oc(-c3ccccc3)c(CN3CCCCC3)c2CN2CCCCC2)cc1
TARGET_OR_TEST_SYSTEM: SK-OV-3 ovarian
GI50: 3.97 µM
//
COMPOUND: COc1cc(CNCCCCCCN2C(=O)c3cccc4cccc(c34)C2=O)ccc1O
TARGET_OR_TEST_SYSTEM: SK-OV-3 ovarian
GI50: 12.3 µM
//
COMPOUND: CCCCN(CCCC)C(=O)[C@H](CC)[C@@H]1CC[C@@H](C)[C@@H]([C@H](C)[C@@H](O)[C@@H](C)C(=O)[C@H](CC)C2O[C@]3(C=C[C@@H](O)[C@]4(CC[C@@](C)([C@H]5CC[C@](O)(CC)[C@H](C)O5)O4)O3)[C@H](C)C[C@@H]2C)O1 (stereo partly drawn)
TARGET_OR_TEST_SYSTEM: SK-OV-3 ovarian
GI50: 3.38 µM

###

# System: SN12C renal
# EXPERIMENTAL_PROTOCOL: NCI tumour cell line growth inhibition, 48 h
Examples of molecules with documented TGI follow.

MOLECULE: CCOC(=O)Cc1cc(OC)c(OC)cc1/C(Cl)=C(\CO)c1ccc(OC)c(OC)c1
TARGET_OR_TEST_SYSTEM: SN12C renal
TGI: > 100 µM

MOLECULE: COc1ccc(C2c3cc4c(cc3OC(NNc3ccccc3)C2C)OCO4)cc1 (centres undefined)
TARGET_OR_TEST_SYSTEM: SN12C renal
TGI: 50.8 µM

MOLECULE: COC(=O)C1(NC(=O)C(Cc2ccccc2)N(C(=O)OC(C)(C)C)C(=O)OC(C)(C)C)CCCC1 (centres undefined)
TARGET_OR_TEST_SYSTEM: SN12C renal
TGI: > 100 µM

MOLECULE: COc1ccc2[nH]c3c(c2c1)[C@H](c1ccccc1)C[C@@H]1C(=O)N(c2ccccc2)C(=O)[C@H]31
TARGET_OR_TEST_SYSTEM: SN12C renal
TGI: 33.3 µM

MOLECULE: O=C1[C@@H]2C(c3ccc(Br)cc3)=NO[C@@H]2C(=O)N1c1ccc(Cc2ccc(N3C(=O)[C@H]4C(c5ccc(Br)cc5)=NO[C@H]4C3=O)cc2)cc1
TARGET_OR_TEST_SYSTEM: SN12C renal
TGI: > 40 µM

MOLECULE: C/C(=N\O)c1ccc2ccc3ccccc3c2c1
TARGET_OR_TEST_SYSTEM: SN12C renal
TGI: > 100 µM

MOLECULE: COc1ccc(/C=c2\c(=O)[nH]c3nc4ccccc4c(=O)n23)cc1
TARGET_OR_TEST_SYSTEM: SN12C renal
TGI: > 100 µM

MOLECULE: COc1ccc2c(c1)OC(N)=C(C#N)C2c1cc(OC)c(OC)c(OC)c1 (centres undefined)
TARGET_OR_TEST_SYSTEM: SN12C renal
TGI: > 100 µM

MOLECULE: COc1cnc2c(c1)C(=O)c1c-2n(CCCNC2=NCCS2)c(=O)c2cc(F)ccc12
TARGET_OR_TEST_SYSTEM: SN12C renal
TGI: 12.3 µM

MOLECULE: Nc1nncc2c1c(Br)cn2C1OC(CO)C(O)C1O (centres undefined)
TARGET_OR_TEST_SYSTEM: SN12C renal
TGI: > 100 µM

MOLECULE: CN=c1ss/c(=N\C(=S)N(C)C)n1C
TARGET_OR_TEST_SYSTEM: SN12C renal
TGI: > 100 µM

MOLECULE: CCOC1OC(CO)C(O)CC1n1ccc(=O)[nH]c1=O (centres undefined)
TARGET_OR_TEST_SYSTEM: SN12C renal
TGI: > 100 µM

MOLECULE: COc1cc(/C=C2\C(=O)N(Cc3ccc(Cl)cc3)c3ccccc32)cc(OC)c1OC
TARGET_OR_TEST_SYSTEM: SN12C renal
TGI: 8.99 µM

MOLECULE: O=C(Cc1ccccc1)NN1C(=O)C(Cl)C1c1ccccc1Cl (centres undefined)
TARGET_OR_TEST_SYSTEM: SN12C renal
TGI: > 100 µM

MOLECULE: CC(CSC(=N)N)C(N)=O (centres undefined)
TARGET_OR_TEST_SYSTEM: SN12C renal
TGI: > 100 µM

MOLECULE: O=C1C(Cl)N(c2c(Cl)cccc2Cl)C1c1c[nH]c2ccccc12 (centres undefined)
TARGET_OR_TEST_SYSTEM: SN12C renal
TGI: > 100 µM

MOLECULE: CCOC(=O)c1c(-c2ccccc2)[n+](=O)c2cc(Cl)c(Cl)cc2n1[O-]
TARGET_OR_TEST_SYSTEM: SN12C renal
TGI: 22.2 µM

MOLECULE: FC(F)(F)c1ccc(C2ON=C(c3ccccc3)N2C23CC4CC(CC(C4)C2)C3)cc1 (centres undefined)
TARGET_OR_TEST_SYSTEM: SN12C renal
TGI: > 10 µM

MOLECULE: O=C(Nc1ccc(Oc2ccc3nc(NC(=O)c4ccco4)[nH]c3c2)cc1)Nc1cc(C(F)(F)F)ccc1F
TARGET_OR_TEST_SYSTEM: SN12C renal
TGI: 10.9 µM

MOLECULE: Brc1ccc(C2C3CSc4ccccc4C3=NN2c2ccccc2)cc1 (centres undefined)
TARGET_OR_TEST_SYSTEM: SN12C renal
TGI: > 100 µM

MOLECULE: COC(=O)CCSC(=O)Nc1ccc(N=Nc2ccccc2)cc1
TARGET_OR_TEST_SYSTEM: SN12C renal
TGI: > 100 µM

MOLECULE: Cc1ccc(/C=C2\Sc3scc(-c4ccccc4)[n+]3C2=O)cc1
TARGET_OR_TEST_SYSTEM: SN12C renal
TGI: > 54.2 µM

MOLECULE: Nc1nc(NNc2cccc(F)c2)cc(=O)[nH]1
TARGET_OR_TEST_SYSTEM: SN12C renal
TGI: > 100 µM

MOLECULE: CCc1n[nH]c(=O)n1CCCCCCCCn1c(CC)n[nH]c1=O
TARGET_OR_TEST_SYSTEM: SN12C renal
TGI: > 100 µM

MOLECULE: CC1=CC2C(C=C1)S(=O)(=O)N1CC21c1ccccc1 (centres undefined)
TARGET_OR_TEST_SYSTEM: SN12C renal
TGI: > 100 µM

MOLECULE: CC1=C(c2nc3ccccc3s2)C(=O)OC1(C)C
TARGET_OR_TEST_SYSTEM: SN12C renal
TGI: > 100 µM

MOLECULE: CCS(=O)C(=O)N(O)c1ccc(Cl)cc1 (centres undefined)
TARGET_OR_TEST_SYSTEM: SN12C renal
TGI: 43 µM

MOLECULE: CC(C)OC(=O)c1ccc(NCc2cc(O)ccc2O)cc1
TARGET_OR_TEST_SYSTEM: SN12C renal
TGI: 7.3 µM

MOLECULE: Oc1ccc(Br)cc1C=Nc1cccc(C(F)(F)F)c1
TARGET_OR_TEST_SYSTEM: SN12C renal
TGI: > 100 µM

MOLECULE: CCCCCCCC/C=C1\CCC(CN(C)C)C1=O (centres undefined)
TARGET_OR_TEST_SYSTEM: SN12C renal
TGI: 14.6 µM

MOLECULE: O=c1[nH]/c(=C/c2ccc3c(c2)OCO3)c(=O)[nH]/c1=C/c1ccc2c(c1)OCO2
TARGET_OR_TEST_SYSTEM: SN12C renal
TGI: > 10 µM

MOLECULE: CCCn1c2c(c3ccccc3c1=O)C(=O)c1ccccc1-2
TARGET_OR_TEST_SYSTEM: SN12C renal
TGI: > 100 µM

MOLECULE: CC1(C)OC(=O)C(C)(C)C(=O)O1
TARGET_OR_TEST_SYSTEM: SN12C renal
TGI: > 100 µM

MOLECULE: O=NN1C(c2ccccc2)CNC(=O)CC1c1ccccc1 (centres undefined)
TARGET_OR_TEST_SYSTEM: SN12C renal
TGI: > 100 µM

MOLECULE: O=C1NC(=S)S/C1=C\c1cn(-c2ccccc2)nc1-c1ccccc1
TARGET_OR_TEST_SYSTEM: SN12C renal
TGI: > 100 µM

MOLECULE: Cc1ccc(S(=O)c2cccs2)cc1 (centres undefined)
TARGET_OR_TEST_SYSTEM: SN12C renal
TGI: > 100 µM

MOLECULE: Cc1c(C)c2c(c(N)c1C#N)C(=O)N(O)C2=O
TARGET_OR_TEST_SYSTEM: SN12C renal
TGI: > 100 µM

MOLECULE: FC(F)(F)c1ccc2c(c1)N(CCCNCCN1CCOCC1)c1ccccc1S2
TARGET_OR_TEST_SYSTEM: SN12C renal
TGI: 26.9 µM

MOLECULE: CC(C)(C)OC(=O)NC1CCCC1C(=O)C1=CCCC1 (centres undefined)
TARGET_OR_TEST_SYSTEM: SN12C renal
TGI: > 100 µM
